experiment: Quantitative High-Throughput drug screen in 47 multiple myeloma cell lines against the NCATS MIPE library collection: OCIMY7_PLB cell viability assay (AID 1918987); details: OCI-MY7 myeloma viability, CellTiter-Glo ATP, 48 h; series mostly up to 45.8 µM; further: nearly all actives have a fitted effect of over 65% in size
Inconclusive results are not listed. Activity calls are given as the source filed them. The call rests on the fitted dose curve; in most records, active means well fitted cell-killing curve with a large enough effect; inconclusive means small, poorly fitted or top-dose-only effect, or effect the other way; inactive means no such curve, though single readings can be large or run the other way.
Answer with one of the outcomes given here: 1 = active, -1 = inactive

Recorded test outcome, item CCOC(=O)C1=C[C@]2(CC)CCCN3CCc4c(n1c1ccccc41)[C@@H]32
1

Please let me know the test result on file for CC(=O)NC(C)c1ccc(Oc2ccc(OC(C)C)cc2)cc1 (stereo not given) .
1

---

test: Quantitative High-Throughput drug screen in 47 multiple myeloma cell lines against the NCATS MIPE library collection: KMS34_JCRB cell viability assay (AID 1918985); settings: KMS34 myeloma viability, CellTiter-Glo ATP luminescence, 48 h; series mostly up to 45.8 µM; further: nearly all actives have a fitted effect of over 40% in size
Records with an inconclusive call do not appear. Active and inactive are the calls of the source. Calls come from the whole dose curve; as a rule, active = well fitted cell-killing curve with a large enough effect; inconclusive = small, poorly fitted or top-dose-only effect, or effect the other way; inactive = no such curve, though single readings can be large or run the other way.
Select the correct class. Options are 1.0 for active, 0.0 for inactive and nothing else.

A selection of reference data follows.
CCN(c1ccccc1)c1cc(NC)[n+](C)c(C)n1    1.0
CCCC(CCC)C(=O)O    0.0
CCCS(=O)(=O)Nc1ccc(F)c(C(=O)c2c[nH]c3ncc(Cl)cc23)c1F    0.0
CCCCNc1cc(C(=O)O)cc(S(N)(=O)=O)c1Oc1ccccc1    0.0

Could you check what this test reported for NC(=O)c1ccc(-c2nc(-c3ccc4c(c3)OCO4)c(-c3ccccn3)[nH]2)cc1 ?
1.0

For CN(C)c1ccc(C2Nc3ccc4ccccc4c3C3=C2C(=O)CC(C)(C)C3)cc1Br (stereo unspecified) , what call appears in the results of this test?
0.0

Assay result, entry O=C(c1cc(Cc2n[nH]c(=O)c3ccccc23)ccc1F)N1CCN(C(=O)C2CC2)CC1 — outcome?
0.0

Could you please tell me the result logged for COc1ccc(-c2ccc3c(N4CCOCC4)nc(N4C[C@@H](C)O[C@@H](C)C4)nc3n2)cc1CO in this assay?
1.0

For Clc1cccc(Cl)c1NC1=NCCN1 , what call appears in the results of this test?
0.0

How was COc1nc(-c2ccc3c(c2)OCO3)n(-c2ccc(NC(=O)CSc3ccccc3)cc2)n1 classified in this test?
0.0

Per the records of this test, what outcome belongs to CNCc1ccc(-c2[nH]c3cc(F)cc4c3c2CCNC4=O)cc1 ?
0.0

Please let me know the test result on file for CCOc1cc(C(=O)Nc2ccc(Cl)c(-c3nc4ccccc4[nH]3)c2)cc(OCC)c1OCC .
0.0

Hi, do you know how CCN(CC)CCCC(C)Nc1ccnc2cc(Cl)ccc12 (stereo unspecified) came out in this test?
0.0

Data credit: PubChem BioAssay (NCATS)
